TARGET OR SYSTEM: T1, 4H568-bH
T1 chain: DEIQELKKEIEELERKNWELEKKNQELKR
EXPERIMENT DESCRIPTION: two-hybrid library CCNG1;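 note: natural log of median RNA to DNA barcode read ratio; higher means stronger binding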
Lab note: anything with interaction score at or over 0.2 counts as satisfied; the rest go in not satisfied.

These recorded examples may help you get a feel for the data.
{"columns": ["BINDER", "CLASS LABEL"],
 "data": [
  ["DEIQELEKKNEELKREIWELKKKIQELKR [4H462-bH]", "satisfied"],
  ["DEIQELEKKIEELKRENWELEKEIQELKR [4H338-bH]", "satisfied"],
  ["DKNQELKKENEELKREIWELEKKIQELKR [4H3782-bH]", "not satisfied"],
  ["DENQELEKKIEELKRENWELKKEIQELER [4H1369-bH]", "not satisfied"],
  ["DEIQELKKEIEELERKNWELEKKNQELKR [4H568-bH]", "not satisfied"]
]}

Input line: Could you verify whether the entry DKNQELKKKIEELEREIWELEKENQELER [4H3843-bH] shows interaction score of no less than 0.2?
Output line: not satisfied

Input line: Could you verify whether the entry DKIQELKKEIEELKRKIWELKKENQELER [4H2667-bH] shows interaction score of no less than 0.2?
Output line: not satisfied
